target_under_test: ERRα (Homo sapiens)
Sequence (P11474 1-423): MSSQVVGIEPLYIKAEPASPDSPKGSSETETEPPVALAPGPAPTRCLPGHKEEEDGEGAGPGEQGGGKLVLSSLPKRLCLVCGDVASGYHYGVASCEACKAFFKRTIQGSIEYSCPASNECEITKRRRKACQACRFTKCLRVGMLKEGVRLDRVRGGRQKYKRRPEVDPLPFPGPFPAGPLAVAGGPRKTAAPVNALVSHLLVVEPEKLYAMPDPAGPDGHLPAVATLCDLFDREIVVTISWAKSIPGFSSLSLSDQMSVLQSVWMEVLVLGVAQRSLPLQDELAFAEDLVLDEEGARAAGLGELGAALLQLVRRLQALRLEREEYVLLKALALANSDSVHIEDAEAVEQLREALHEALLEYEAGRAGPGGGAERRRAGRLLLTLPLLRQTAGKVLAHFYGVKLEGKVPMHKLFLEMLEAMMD
test_name: ERRα degradation in MCF-7 cells
Format: cell-based
Set-up: endogenous in cells; host or cells: MCF-7 (ATCC)
cond: MCF7, column A, read-out: ERRα Degradation Dmax (Estimated) MCF-7 cells
readout_name: Dmax (%)

A selection of reference data follows.
- COc1cc(/C=C2\SC(=O)N(CCOCCOCCOCCOCCOc3cc(-c4scnc4C)ccc3CNC(=O)[C@@H]3C[C@@H](O)CN3C(=O)[C@H](C(C)C)N3Cc4ccccc4C3=O)C2=O)ccc1Oc1ccc(C#N)cc1C(F)(F)F [ARV N000219]: 98
- COc1cc(/C=C2\SC(=O)N(CCOCCCOCCCOc3cc(-c4scnc4C)ccc3CNC(=O)[C@@H]3C[C@@H](O)CN3C(=O)[C@H](C(C)C)N3Cc4ccccc4C3=O)C2=O)ccc1Oc1ccc(C#N)cc1C(F)(F)F [ARV N000222]: 90
- COc1cc(/C=C2\SC(=O)N(CCOCCOCCCCCOCCCCCOCCOCCOc3cc(-c4scnc4C)ccc3CNC(=O)[C@@H]3C[C@@H](O)CN3C(=O)[C@H](C(C)C)N3Cc4ccccc4C3=O)C2=O)ccc1Oc1ccc(C#N)cc1C(F)(F)F [ARV N000232]: 60
- COc1cc(/C=C2\SC(=O)N(CCOCCOCCCCOCCCCOCCOCC(=O)N[C@H](C(=O)N3C[C@H](O)C[C@H]3C(=O)NCc3ccc(-c4scnc4C)cc3)C(C)(C)C)C2=O)ccc1Oc1ccc(C#N)cc1C(F)(F)F [ARV N000200]: 80
- COc1cc(/C=C2\SC(=O)N(CCOCCOCCCOCCOCCOCC(=O)N[C@H](C(=O)N3C[C@H](O)C[C@H]3C(=O)NCc3ccc(-c4scnc4C)cc3)C(C)(C)C)C2=O)ccc1Oc1ccc(C#N)cc1C(F)(F)F [ARV N000235]: 95

(1) COc1cc(/C=C2\SC(=O)N(CCOCCOCCCCCOCCOCCOc3cc(-c4scnc4C)ccc3CNC(=O)[C@@H]3C[C@@H](O)CN3C(=O)[C@H](C(C)C)N3Cc4ccccc4C3=O)C2=O)ccc1Oc1ccc(C#N)cc1C(F)(F)F [ARV N000231]
(2) COc1cc(/C=C2\SC(=O)N(CCCCOCCCCOCCCCOc3cc(-c4scnc4C)ccc3CNC(=O)[C@@H]3C[C@@H](O)CN3C(=O)[C@H](C(C)C)N3Cc4ccccc4C3=O)C2=O)ccc1Oc1ccc(C#N)cc1C(F)(F)F [ARV N000233]
Which shows the larger Dmax value: 1 or 2 ? Record your answer as the label of the chosen record.
1
(1: 98%, 2: 60%)

----------
target_under_test: ERRα (Homo sapiens, UniProt P11474)
test_name: ERRα degradation in MCF-7 cells
Assay type: cell-based
Design: endogenous in cells; host or cells: MCF-7 (ATCC)
cond: MCF7, column A, read-out: ERRα Degradation Dmax (Estimated) MCF-7 cells
readout_name: Dmax (%)

* COc1cc(/C=C2\SC(=O)N(CCOCCOCCOCCOc3cc(-c4scnc4C)ccc3CNC(=O)[C@@H]3C[C@@H](O)CN3C(=O)[C@H](C(C)C)N3Cc4ccccc4C3=O)C2=O)ccc1Oc1ccc(C#N)cc1C(F)(F)F | 90
* COc1cc(/C=C2\SC(=O)N(CCOCCOCCCCCOCCCCCOCCOCC(=O)N[C@H](C(=O)N3C[C@H](O)C[C@H]3C(=O)NCc3ccc(-c4scnc4C)cc3)C(C)(C)C)C2=O)ccc1Oc1ccc(C#N)cc1C(F)(F)F | 90

----------
target_under_test: ERRα (Homo sapiens, UniProt P11474)
test_name: ERRα degradation in ST-486 cells
Type: cell-based
Parameters: degration of ERRα in either MCF-7 cells or ST-486 cells; endogenous in cells; host or cells: ST-486
cond: ST486, column C, read-out: ERRα Degradation Dmax (Estimated) ST-486 cells
readout_name: Dmax (%)

* COc1cc(/C=C2\SC(=O)N(CCOCCOCCCCOCCOCCOc3cc(-c4scnc4C)ccc3CNC(=O)[C@@H]3C[C@@H](O)CN3C(=O)[C@H](C(C)C)N3Cc4ccccc4C3=O)C2=O)ccc1Oc1ccc(C#N)cc1C(F)(F)F | 80
* COc1cc(/C=C2\SC(=O)N(CCOCCC(=O)N[C@H](C(=O)N3C[C@H](O)C[C@H]3C(=O)NCc3ccc(-c4scnc4C)cc3)C(C)(C)C)C2=O)ccc1Oc1ccccc1C(F)(F)F | 98

(P) COc1cc(/C=C2\SC(=O)N(CCCCOCCCCOCCCCCC(=O)N[C@H](C(=O)N3C[C@H](O)C[C@H]3C(=O)NCc3ccc(-c4scnc4C)cc3)C(C)(C)C)C2=O)ccc1Oc1ccc(C#N)cc1C(F)(F)F
(Q) COc1cc(/C=C2\SC(=O)N(CCOCCOCCCCOCCCCOCCOCCOc3cc(-c4scnc4C)ccc3CNC(=O)[C@@H]3C[C@@H](O)CN3C(=O)[C@H](C(C)C)N3Cc4ccccc4C3=O)C2=O)ccc1Oc1ccc(C#N)cc1C(F)(F)F
Select one. Lower Dmax: P or Q Record your answer as the label of the chosen record.
Q

----------
target_under_test: ERRα (Homo sapiens)
test_name: ERRα degradation in MCF-7 cells
Format: cell-based
Set-up: endogenous in cells; host or cells: MCF-7 (ATCC)
cond: MCF7, column A, read-out: ERRα Degradation Dmax (Estimated) MCF-7 cells
readout_name: Dmax (%)

* COc1cc(/C=C2\SC(=O)N(CCOCCOCCOCCOCCOCCOCC(=O)N[C@H](C(=O)N3C[C@H](O)C[C@H]3C(=O)NCc3ccc(-c4scnc4C)cc3)C(C)(C)C)C2=O)ccc1Oc1ccc(C#N)cc1C(F)(F)F [ARV N000234] | 98
* COc1cc(/C=C2\SC(=O)N(CCCCCOCCOCCC(=O)N[C@H](C(=O)N3CC(O)C[C@H]3C(=O)NCc3ccc(-c4scnc4C)cc3)C(C)(C)C)C2=O)ccc1Oc1ccc(C#N)cc1C(F)(F)F (some centres unmarked) [ARV N000224] | 90

----------
target_under_test: UniProtKB P11474
test_name: ERRα degradation in ST-486 cells
Format: cell-based
Parameters: degration of ERRα in either MCF-7 cells or ST-486 cells; endogenous in cells; host or cells: ST-486
cond: ST486, column C, read-out: ERRα Degradation Dmax (Estimated) ST-486 cells
readout_name: Dmax (%)

A selection of reference data follows.
- COc1cc(/C=C2\SC(=O)N(CCOCCOCCCCCOCCOCCOCC(=O)N[C@H](C(=O)N3C[C@H](O)C[C@H]3C(=O)NCc3ccc(-c4scnc4C)cc3)C(C)(C)C)C2=O)ccc1Oc1ccc(C#N)cc1C(F)(F)F [ARV N000267]: 80
- COc1cc(/C=C2\SC(=O)N(Cc3cccc(CC(=O)N[C@H](C(=O)N4C[C@H](O)C[C@H]4C(=O)NCc4ccc(-c5scnc5C)cc4)C(C)(C)C)c3)C2=O)ccc1Oc1ccc(C#N)cc1C(F)(F)F [ARV N000382]: 98

(1) COc1cc(/C=C2\SC(=O)N(Cc3ccc(CC(=O)N[C@H](C(=O)N4C[C@H](O)C[C@H]4C(=O)NCc4ccc(-c5scnc5C)cc4)C(C)(C)C)cc3)C2=O)ccc1Oc1ccc(C#N)cc1C(F)(F)F [ARV N000413]
(2) COc1cc(/C=C2\SC(=O)N(CCCCOCCCCOCCCCCCC(=O)N[C@H](C(=O)N3C[C@H](O)C[C@H]3C(=O)NCc3ccc(-c4scnc4C)cc3)C(C)(C)C)C2=O)ccc1Oc1ccc(C#N)cc1C(F)(F)F [ARV N000245]
Which shows the larger Dmax value: 1 or 2 ? Record your answer as the label of the chosen record.
1

----------
target_under_test: ERRα (Homo sapiens)
Sequence (P11474 1-423): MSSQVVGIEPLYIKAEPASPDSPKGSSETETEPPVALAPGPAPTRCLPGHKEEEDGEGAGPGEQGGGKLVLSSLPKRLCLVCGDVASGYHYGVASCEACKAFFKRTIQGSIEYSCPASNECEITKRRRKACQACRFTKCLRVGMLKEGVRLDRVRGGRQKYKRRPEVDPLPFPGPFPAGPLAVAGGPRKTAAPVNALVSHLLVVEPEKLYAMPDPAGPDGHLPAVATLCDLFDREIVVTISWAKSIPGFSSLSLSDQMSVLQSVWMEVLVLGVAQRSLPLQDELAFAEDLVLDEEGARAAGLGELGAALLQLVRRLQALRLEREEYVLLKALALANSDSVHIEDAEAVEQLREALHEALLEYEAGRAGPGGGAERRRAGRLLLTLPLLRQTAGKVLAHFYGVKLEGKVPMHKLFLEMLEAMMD
test_name: ERRα degradation in MCF-7 cells
Format: cell-based
Set-up: endogenous in cells; host or cells: MCF-7 (ATCC)
cond: MCF7, column A, read-out: ERRα Degradation Dmax (Estimated) MCF-7 cells
Method: Human MDA-MB-231 and MCF7 cells (purchased authenticated ATCC cell lines) were cultured in complete growth medium (Dulbecco's modified Eagle's medium (DMEM)/F12 supplemented with 10% FBS; Life Technologies) and grown at 37° C. with 5% CO2. […] Total protein concentrations of tissue homogenates and cell lysates were determined by Pierce BCA kit (Thermo Fisher). […] The intensity of the bands was quantified with Bio-Rad Quantity One software. […]
readout_name: Dmax (%)

* COc1cc(/C=C2\SC(=O)N(CCOCCOCCCOCCOCCOc3cc(-c4scnc4C)ccc3CNC(=O)[C@@H]3C[C@@H](O)CN3C(=O)[C@H](C(C)C)N3Cc4ccccc4C3=O)C2=O)ccc1Oc1ccc(C#N)cc1C(F)(F)F | 90

(P) COc1cc(/C=C2\SC(=O)N(CCOCCC(=O)N[C@H](C(=O)N3C[C@@H](O)C[C@H]3C(=O)NCc3ccc(-c4scnc4C)cc3)C(C)(C)C)C2=O)ccc1Oc1ccc(C#N)cc1C(F)(F)F
(Q) COc1cc(/C=C2\SC(=O)N(CCOCCC(=O)N[C@H](C(=O)N3CC(O)C[C@H]3C(=O)NCc3ccc(-c4scnc4C)cc3)C(C)(C)C)C2=O)ccc1Oc1ccc(C#N)cc1C(F)(F)F (stereo partly drawn)
Which shows the larger Dmax value: P or Q ? Record your answer as the label of the chosen record.
Q
